test.method.notes: physchem
conditions.used: 1-octanol/aqueous buffer, pH 7.4
readout: logD
Would you mind answering with just the numeric figure?

{"smiles.string": "C[C@@H]1Cc2c([nH]c3ccccc23)[C@@H](c2c(F)cc(OCCNCCCF)cc2F)N1CC1(CF)COC1", "logD": 3.4}
{"smiles.string": "C[C@@H]1Cc2c([nH]c3ccccc23)[C@@H](c2c(F)cc(OCCNCCCF)cc2F)N1CC(C)(F)F", "logD": 4.1}

Could you please provide reported logD for COc1cc(NCCNCCCF)ccc1[C@@H]1c2[nH]c3ccccc3c2C[C@@H](C)N1CC1(F)COC1 ? Thanks!
2.5

Could you please provide reported logD for COc1cc(OCCNCCCF)ncc1[C@@H]1c2[nH]c3ccccc3c2C[C@@H](C)N1CC(C)(C)F ? Thanks!
3.5

Could you please provide reported logD for COc1cc(OCCNCCCF)ncc1[C@@H]1c2[nH]c3ccccc3c2C[C@@H](C)N1CC(C)(F)F ? Thanks!
3.3

Could you please provide reported logD for C[C@@H]1Cc2c([nH]c3ccccc23)[C@@H](c2cnc(OCCNCCCF)cn2)N1CC(F)(F)CO ? Thanks!
2

* * *

measurement.target: Estrogen Receptor (ERα) in MCF-7 cells (Homo sapiens (Human), UniProt P03372)
Sequence (P03372 whole entry): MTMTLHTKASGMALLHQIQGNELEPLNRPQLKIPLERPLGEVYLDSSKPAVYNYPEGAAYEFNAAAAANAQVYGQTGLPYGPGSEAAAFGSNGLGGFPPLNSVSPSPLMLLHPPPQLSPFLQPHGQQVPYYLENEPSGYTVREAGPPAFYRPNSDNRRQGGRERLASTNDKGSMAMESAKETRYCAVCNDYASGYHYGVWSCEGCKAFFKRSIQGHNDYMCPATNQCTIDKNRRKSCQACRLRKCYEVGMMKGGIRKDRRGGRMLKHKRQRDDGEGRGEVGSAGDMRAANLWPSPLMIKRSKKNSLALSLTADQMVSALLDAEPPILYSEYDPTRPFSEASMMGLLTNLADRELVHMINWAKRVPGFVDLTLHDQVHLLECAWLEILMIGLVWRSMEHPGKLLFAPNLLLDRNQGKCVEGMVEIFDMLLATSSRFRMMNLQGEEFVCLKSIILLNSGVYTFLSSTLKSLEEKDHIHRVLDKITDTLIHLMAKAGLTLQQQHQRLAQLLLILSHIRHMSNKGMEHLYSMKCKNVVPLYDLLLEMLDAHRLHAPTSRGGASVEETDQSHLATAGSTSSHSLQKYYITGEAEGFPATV
test.method.notes: MCF-7 ER down-regulation assay (immuno-fluorescence)
Format: cell-based
conditions.used: shown in brackets where not >90%
readout: % downregulation

For orientation, consider the following solved cases.
{"compound": "CC(CNCCCF)Oc1cc(F)c([C@@H]2c3[nH]c4ccccc4c3C[C@@H](C)N2CC(C)(C)F)c(F)c1 (stereo partly shown)", "test.result": "(68%)"}
{"compound": "C[C@@H]1Cc2c([nH]c3ccccc23)[C@@H](c2ccc(OCCNCCCF)cc2C#N)N1CC1(F)CC1", "test.result": "(57%)"}
{"compound": "COc1nc(OCCNCCCF)ccc1[C@@H]1c2[nH]c3ccccc3c2C[C@@H](C)N1CC(C)(F)F", "test.result": "(85%)"}
{"compound": "COCC(F)(F)CN1[C@H](c2c(F)cc(OCCNCCCF)cc2F)c2[nH]c3ccccc3c2C[C@H]1C", "test.result": "(89%)"}

Could you please provide reported % downregulation for C[C@@H]1Cc2c([nH]c3ccccc23)[C@@H](c2ccc(OC[C@H](C)NCCCF)cc2)N1CC1(F)COC1 ? Thanks!
(79%)

Could you please provide reported % downregulation for C[C@@H]1Cc2c([nH]c3ccccc23)[C@@H](c2c(F)cc(OCCNCCCF)cc2F)N1CC(C)(F)CO (single isomer, unassigned) [Example 18] ? Thanks!
(85%)

Could you please provide reported % downregulation for C[C@@H]1Cc2c([nH]c3ccccc23)[C@@H](c2c(F)cc(OCC(CO)NCCCF)cc2F)N1CC(C)(C)F (single isomer, unassigned) ? Thanks!
(79%)

* * *

test.method.notes: physchem
conditions.used: 1-octanol/aqueous buffer, pH 7.4
Here the recorded logD is given for each entry.
Would you mind answering with just the numeric figure?

For orientation, consider the following solved cases.
{"smiles.string": "COc1cc(NCCNCCCF)ncc1[C@@H]1c2[nH]c3ccccc3c2C[C@@H](C)N1CC1(F)COC1", "logD": 2}
{"smiles.string": "COc1cc(OCCNCCCF)ncc1[C@@H]1c2[nH]c3ccccc3c2C[C@@H](C)N1CC(F)(F)CO", "logD": 2.2}
{"smiles.string": "COc1cc(NCCNCCCF)ncc1[C@@H]1c2[nH]c3ccccc3c2C[C@@H](C)N1CC(F)(F)CO", "logD": 2.1}

Could you please provide reported logD for C[C@@H]1Cc2c([nH]c3ccccc23)[C@@H](c2ncc(OCCNCCCF)cn2)N1CC(C)(C)F ? Thanks!
2.5

Could you please provide reported logD for C[C@@H]1Cc2c([nH]c3ccccc23)[C@@H](c2ccc(OCCNCCCF)nc2)N1CC1(F)CC1 ? Thanks!
3

Could you please provide reported logD for COc1cc(OCCNCCCF)ncc1[C@@H]1c2[nH]c3ccccc3c2C[C@@H](C)N1CC(F)F ? Thanks!
2.7

Could you please provide reported logD for C[C@@H]1Cc2c([nH]c3ccccc23)[C@@H](c2ccc(OCCNCCCF)cc2F)N1CC1(F)CC1 ? Thanks!
3.4

Could you please provide reported logD for C[C@@H]1Cc2c([nH]c3ccccc23)[C@@H](c2ccc(OCCNCCCF)cc2)N1CC1(F)CC1 ? Thanks!
3.3

Could you please provide reported logD for C[C@@H]1Cc2c([nH]c3ccccc23)[C@@H](c2ccc(OCCNCCCF)cc2F)N1CC1(F)COC1 ? Thanks!
3

* * *

test.method.notes: Thermodynamic solubility (shake flask)
Type: physicochemical
conditions.used: aqueous phosphate buffer, 25 °C, pH 7.4, aqueous buffer, thermodynamic from solid, aqueous phosphate buffer pH 7.4, 24 hours
Short version: solubility at 24 h at least 70 µM is yes (1), less is no (0).

// known answers, use as guide
{"smiles.string": "COc1cc(NCCNCCCF)ncc1[C@@H]1c2[nH]c3ccccc3c2C[C@@H](C)N1CC(F)F", "class.label": "yes (1)"}
{"smiles.string": "COc1nc(NCCNCCCF)ccc1[C@@H]1c2[nH]c3ccccc3c2C[C@@H](C)N1CC(C)(F)F", "class.label": "yes (1)"}
{"smiles.string": "C[C@@H]1Cc2c([nH]c3ccccc23)[C@@H](c2c(F)cc(OCCNCCCF)cc2F)N1CC(C)(F)F", "class.label": "no (0)"}
{"smiles.string": "C[C@@H]1Cc2c([nH]c3ccccc23)[C@@H](c2c(F)cc(N(C)CCNCCCF)cc2F)N1CC1(F)CC1", "class.label": "yes (1)"}

Given the entry C[C@@H]1Cc2c([nH]c3ccccc23)[C@@H](c2ccc(OCCNCCCF)cn2)N1CC(C)(C)F , answer whether its solubility at 24 h meets or surpasses 70 µM.
yes (1)

Given the entry C[C@@H]1Cc2c([nH]c3ccccc23)[C@@H](c2c(F)cc(OCCNCCCF)cc2F)N1CC1(CF)COC1 , answer whether its solubility at 24 h meets or surpasses 70 µM.
yes (1)

* * *

test.method.notes: Human hepatocyte assay (metabolic stability)
Type: in vitro ADME
conditions.used: cryopreserved pooled human hepatocytes (LiverPool 10 Donor), in vitro intrinsic clearance
readout: hepatocyte CLint at 1 µM (µL/min/1e6 cells)
Numeric only. Scale: µL/min/1e6 cells

{"smiles.string": "C[C@@H]1Cc2c([nH]c3ccccc23)[C@@H](c2ccc(OCCNCCCF)cn2)N1CC(C)(C)F", "hepatocyte CLint at 1 µM, µL/min/1e6 cells": 5}

Now consider the entry below.
Could you please provide reported hepatocyte CLint at 1 µM for COc1cc(OCCNCCCF)ncc1[C@@H]1c2[nH]c3ccccc3c2C[C@@H](C)N1CC(F)F ? Thanks!
5

* * *

measurement.target: Estrogen Receptor (ERα) in MCF-7 cells (Homo sapiens (Human), UniProt P03372)
test.method.notes: MCF-7 ER down-regulation assay (immuno-fluorescence)
conditions.used: 18-22 hours incubation
readout: pIC50
FYI, pIC50 means -log10 of a concentration in mol per litre.

For orientation, consider the following solved cases.
{"compound": "COc1cc(OCCNCCCF)ncc1[C@@H]1c2[nH]c3ccccc3c2C[C@@H](C)N1CC1(F)COC1 [Example 7]", "pIC50": 9.29}
{"compound": "COc1cc(OCCNCCCF)ncc1[C@@H]1c2[nH]c3ccccc3c2C[C@@H](C)N1CC1(F)CC1 [Example 37]", "pIC50": 9.29}
{"compound": "COc1nc(NCCNCCCF)ccc1[C@@H]1c2[nH]c3ccccc3c2C[C@@H](C)N1CC(F)F [Example 76]", "pIC50": 9.49}
{"compound": "C[C@@H]1Cc2c([nH]c3ccccc23)[C@@H](c2ccc(OC[C@H](C)NCCCF)cc2)N1CC1(F)COC1 [Example 27]", "pIC50": 8.82}
{"compound": "C[C@@H]1Cc2c([nH]c3ccccc23)[C@@H](c2c(F)cc(OCCNCCCF)cc2F)N1CC(C)(F)CO (single isomer, unassigned) [Example 17]", "pIC50": 10.07}

Could you please provide reported pIC50 for C[C@@H]1Cc2c([nH]c3ccccc23)[C@@H](c2cnc(OCCNCCCF)cn2)N1CC(C)(C)F [Example 38] ? Thanks!
9.37

* * *

test.method.notes: Human plasma protein binding (equilibrium dialysis)
Assay type: in vitro ADME
conditions.used: dialysis 18 hours
readout: Human plasma protein binding (% free)
Numeric only. Scale: % free

For orientation, consider the following solved cases.
{"molecule": "Cc1cc(OCCNCCCF)ncc1[C@@H]1c2[nH]c3ccccc3c2C[C@@H](C)N1CC(F)F [Example 63]", "Human plasma protein binding (% free)": 1.4}
{"molecule": "C[C@@H]1Cc2c([nH]c3ccccc23)[C@@H](c2ccc(OCCNCCCF)cc2F)N1CC1(F)COC1 [Example 22]", "Human plasma protein binding (% free)": 6.1}
{"molecule": "C[C@H](COc1ccc([C@@H]2c3[nH]c4ccccc4c3C[C@@H](C)N2CC2(F)COC2)cc1)NCCCF [Example 28]", "Human plasma protein binding (% free)": 2.7}

Now consider the entry below.
Could you please provide reported Human plasma protein binding (% free) for C[C@@H]1Cc2c([nH]c3ccccc23)[C@@H](c2c(F)cc(N(C)CCNCCCF)cc2F)N1CC1(F)CC1 [Example 45] ? Thanks!
1.0
